Species: Homo sapiens
Method description: Selectivity ratio of IC50 for recombinant human carbonic anhydrase 2 to IC50 for recombinant human carbonic anhydrase 9
Ratio IC50 reference

Substance smiles | Ratio IC50
Cc1cc(-c2nnc(Nc3ccc(S(N)(=O)=O)cc3)c3ccccc23)ccc1S(N)(=O)=O | 8.1
Nc1ccc(Nc2nnc(-c3cccc(S(N)(=O)=O)c3)c3ccccc23)cc1 | 5.3
NS(=O)(=O)c1ccc(Nc2nnc(-c3cccc(S(N)(=O)=O)c3)c3ccccc23)cc1 | 24.5
Cc1ccc(-c2nnc(Nc3ccc(S(N)(=O)=O)cc3)c3ccccc23)cc1S(N)(=O)=O | 1140
CC(C)(C)c1ccc(Nc2nnc(-c3cccc(S(N)(=O)=O)c3)c3ccccc23)cc1 | > 100

* * *

Test system: Carbonic anhydrase 9 (Homo sapiens, UniProt Q16790)
Method description: Inhibition of recombinant human carbonic anhydrase 9 after 15 mins by stopped flow CO2 hydration assay
pIC50: −log10 of the molar value.

Substance smiles | Test system | Bound sign | pIC50
NS(=O)(=O)c1ccc(Nc2nnc(-c3cccc(S(N)(=O)=O)c3)c3ccccc23)cc1 | Carbonic anhydrase 9 (Homo sapiens, UniProt Q16790) | = | 7.73
COc1cccc(-c2nnc(Nc3cccc(S(N)(=O)=O)c3)c3ccccc23)c1 | Carbonic anhydrase 9 (Homo sapiens, UniProt Q16790) | < | 6.16
NS(=O)(=O)c1ccc(Nc2nnc(-c3ccccc3)c3ccccc23)cc1 | Carbonic anhydrase 9 (Homo sapiens, UniProt Q16790) | < | 5.41
Cc1ccc(-c2nnc(Nc3ccc(S(N)(=O)=O)cc3)c3ccccc23)cc1S(N)(=O)=O | Carbonic anhydrase 9 (Homo sapiens, UniProt Q16790) | = | 9.32
NS(=O)(=O)c1cccc(Nc2nnc(-c3ccc(C(F)(F)F)cc3)c3ccccc23)c1 | Carbonic anhydrase 9 (Homo sapiens, UniProt Q16790) | = | 6.16

* * *

Test system: Carbonic anhydrase 1 (Homo sapiens)
Sequence (P00915 whole entry): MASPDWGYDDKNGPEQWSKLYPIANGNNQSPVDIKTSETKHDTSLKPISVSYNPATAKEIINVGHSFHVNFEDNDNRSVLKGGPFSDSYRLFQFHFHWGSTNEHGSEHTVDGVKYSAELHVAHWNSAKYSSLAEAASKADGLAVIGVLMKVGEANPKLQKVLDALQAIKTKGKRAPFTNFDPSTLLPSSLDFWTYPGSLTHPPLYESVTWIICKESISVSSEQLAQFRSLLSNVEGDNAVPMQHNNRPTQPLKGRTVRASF
Method description: Inhibition of recombinant human carbonic anhydrase 1 after 15 mins by stopped flow CO2 hydration assay
IC50 reference

Substance smiles | IC50
NS(=O)(=O)c1cccc(Nc2nnc(-c3ccc(Cl)cc3)c3ccccc23)c1 | > 10 µM
COc1ccc(-c2nnc(Nc3cccc(S(N)(=O)=O)c3)c3ccccc23)cc1 | > 10 µM
NS(=O)(=O)c1ccc(Nc2nnc(-c3cccc(S(N)(=O)=O)c3)c3ccccc23)cc1 | > 10 µM
COc1cccc(-c2nnc(Nc3cccc(S(N)(=O)=O)c3)c3ccccc23)c1 | 0.22 µM
COc1cccc(-c2nnc(Nc3ccc(S(N)(=O)=O)cc3)c3ccccc23)c1 | > 10 µM
NS(=O)(=O)c1cccc(Nc2nnc(-c3ccccc3)c3ccccc23)c1 | > 10 µM
CC(C)(C)c1ccc(Nc2nnc(-c3cccc(S(N)(=O)=O)c3)c3ccccc23)cc1 | > 10 µM
NS(=O)(=O)c1ccc(Nc2nnc(-c3ccc(Cl)cc3)c3ccccc23)cc1 | > 10 µM
Cc1cc(-c2nnc(Nc3ccc(S(N)(=O)=O)cc3)c3ccccc23)ccc1S(N)(=O)=O | 0.0857 µM

* * *

Species on record: Homo sapiens
Method description: Selectivity ratio of IC50 for recombinant human carbonic anhydrase 1 to IC50 for recombinant human carbonic anhydrase 9
Metric name: Ratio IC50

Substance smiles | Value
NS(=O)(=O)c1ccc(Nc2nnc(-c3cccc(S(N)(=O)=O)c3)c3ccccc23)cc1 | > 1000
Cc1cc(-c2nnc(Nc3ccc(S(N)(=O)=O)cc3)c3ccccc23)ccc1S(N)(=O)=O | 25.7
Cc1ccc(-c2nnc(Nc3ccc(S(N)(=O)=O)cc3)c3ccccc23)cc1S(N)(=O)=O | > 10000
CC(C)(C)c1ccc(Nc2nnc(-c3cccc(S(N)(=O)=O)c3)c3ccccc23)cc1 | > 100
Nc1ccc(Nc2nnc(-c3cccc(S(N)(=O)=O)c3)c3ccccc23)cc1 | > 100
